systemTested: Stp1/Stp4/Stp3 subcomplex (Mycosarcoma maydis, UniProt A0A0D1C5E3+A0A0D1CU07+A0A0D1EAN2)
Sequence (A0A0D1CU07 29-515): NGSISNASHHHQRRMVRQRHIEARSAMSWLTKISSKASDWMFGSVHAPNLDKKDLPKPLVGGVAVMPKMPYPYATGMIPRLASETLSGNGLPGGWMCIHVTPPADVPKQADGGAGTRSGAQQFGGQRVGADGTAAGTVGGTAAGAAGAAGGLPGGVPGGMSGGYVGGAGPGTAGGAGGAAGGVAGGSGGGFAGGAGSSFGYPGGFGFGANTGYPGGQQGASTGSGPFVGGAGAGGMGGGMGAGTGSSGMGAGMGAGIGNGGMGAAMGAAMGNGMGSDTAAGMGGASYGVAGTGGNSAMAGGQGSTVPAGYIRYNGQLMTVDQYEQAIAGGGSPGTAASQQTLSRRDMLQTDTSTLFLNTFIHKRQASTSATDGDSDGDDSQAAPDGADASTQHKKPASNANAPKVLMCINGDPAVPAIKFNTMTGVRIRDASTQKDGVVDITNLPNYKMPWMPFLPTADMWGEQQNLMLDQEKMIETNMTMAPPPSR
Sequence (A0A0D1C5E3 24-129): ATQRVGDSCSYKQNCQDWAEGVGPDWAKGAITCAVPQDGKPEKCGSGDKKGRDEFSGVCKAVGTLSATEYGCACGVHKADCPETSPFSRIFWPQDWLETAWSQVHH
Sequence (A0A0D1EAN2 25-327): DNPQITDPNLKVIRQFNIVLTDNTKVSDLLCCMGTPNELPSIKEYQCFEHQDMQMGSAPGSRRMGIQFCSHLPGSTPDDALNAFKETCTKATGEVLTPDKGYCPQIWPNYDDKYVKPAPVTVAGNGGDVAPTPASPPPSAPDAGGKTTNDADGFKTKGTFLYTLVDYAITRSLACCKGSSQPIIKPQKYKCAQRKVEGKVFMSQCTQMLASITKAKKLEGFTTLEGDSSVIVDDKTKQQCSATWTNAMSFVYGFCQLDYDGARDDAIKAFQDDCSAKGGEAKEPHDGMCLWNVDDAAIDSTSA
assayInfo: Alamar Blue viability assay in S. cerevisiae 2-hybrid strain NL73 (viability depends on Stp complex formation)
Format: cell-based, U. maydis
conditionContext: NL73 strain, Table 5; read-out: A-blue IC50
measurementLabel: IC50 (µM)
Write down the numeric answer in µM and omit the unit.

Exercise: Requested read-out IC50, target or system Stp1/Stp4/Stp3 subcomplex (Mycosarcoma maydis, UniProt A0A0D1C5E3+A0A0D1CU07+A0A0D1EAN2), entry Cc1ccc(-c2c(-c3ccc(C)cc3)[n+]([O-])c3ccccn23)cc1
Solution: 0.14

Exercise: Could you share what IC50 was measured for [O-][n+]1c(-c2ccc(C(F)(F)F)cc2)c(-c2ccc(C(F)(F)F)cc2)n2ccccc21 , tested on Stp1/Stp4/Stp3 subcomplex (Mycosarcoma maydis, UniProt A0A0D1C5E3+A0A0D1CU07+A0A0D1EAN2)?
Solution: 0.02

Exercise: Request: IC50, test system Stp1/Stp4/Stp3 subcomplex (Mycosarcoma maydis, UniProt A0A0D1C5E3+A0A0D1CU07+A0A0D1EAN2), entry O=[N+]([O-])c1ccc(-c2c(-c3ccccc3)n3ccccc3[n+]2[O-])cc1
Solution: 0.25

###

systemTested: Stp1/Stp4/Stp3 subcomplex (Mycosarcoma maydis, UniProt A0A0D1C5E3+A0A0D1CU07+A0A0D1EAN2)
assayInfo: Alamar Blue viability assay in S. cerevisiae 2-hybrid strain NL73 (viability depends on Stp complex formation)
Type: cell-based, U. maydis
conditionContext: Alamar Blue assay, Table 8; read-out: IC50
measurementLabel: IC50 (µM)
Number only, in µM; omit the unit.

Exercise: Value lookup for IC50; key = O=S(=O)(Nc1cnc2c(cnn2C2CCCCC2)c1)c1cc(F)ccc1F [Compound 3-B]
Solution: 2.2

Exercise: Which IC50 value is on record for Cn1ncc2cc(NS(=O)(=O)c3cc(F)ccc3F)cnc21 [Compound 4-B] ?
Solution: 10.2
